Test system: Wnt activity (Wnt-responsive SP5 promoter luciferase reporter in SW480 cells)
assay-text: Wnt activity reporter assay: SW480 cells with SP5 promoter-driven firefly luciferase
Format: cell-based
condition-parameters: Homo sapiens, 24 h after compound addition, read-out: Wnt inhibition
Exam item: assign Y to entries whose IC50 is below 2000 nM and N to entries at or above 2000 nM. Note that a value of exactly 2000 nM receives N.

Reference set (2 entries):
Qu. Consider the compound O=C(Nc1cccnc1)c1n[nH]c2ccc(-c3cncc(CN4CC(CO)(CO)C4)c3)cc12 . Is its IC50 strictly less than 2000 nM?
Ans. N

Qu. Quick check: IC50 of O=C(NC1CCC(F)(F)CC1)c1n[nH]c2ccc(-c3cccnc3)cc12 under 2000 nM?
Ans. Y

***
Qu. Is IC50 strictly under 2000 nM for the entry CN1CCN(c2ccc(NC(=O)c3n[nH]c4ccc(-c5cncc(NC(=O)c6ccc(F)cc6F)c5)cc34)cn2)CC1 ?
Ans. Y

Qu. # strict comparison: is reported IC50 < 2000 nM? input = CC(C)Oc1ccc(NC(=O)c2n[nH]c3ccc(-c4cncc(CN5CC6CC(C5)O6)c4)cc23)cn1
Ans. Y

Qu. Hi there! Is IC50 for O=C(NC1CC1)c1n[nH]c2ccc(-c3cncc(CN4CCCCC4)c3)cc12 below 2000 nM, do you know?
Ans. N

Qu. A record lists O=C(NC1(c2ccccc2)CC1)c1n[nH]c2ccc(-c3cncc(CN4CCC(F)(F)C4)c3)cc12 . Is its IC50 below 2000 nM?
Ans. N

Qu. Is it true that IC50 reported for COc1ccc(NC(=O)c2n[nH]c3ccc(-c4cncc(N5CC(N)C5)n4)cc23)cn1 is less than 2000 nM?
Ans. Y

Qu. Record CCN1CCC(NC(=O)c2n[nH]c3cc(F)c(-c4cncc5ccccc45)cc23)CC1 : is its IC50 strictly below 2000 nM?
Ans. N

###

System: primary human mesenchymal stem cells (hMSCs)
assay-text: Chondrogenesis assay in primary human mesenchymal stem cells, nodule count vs TGF-β3 positive control
Type: cell-based
condition-parameters: 6 days, concentration required to induce chondrogenesis equivalent to TGF-β3 (10 ng/mL)
Here the recorded Conc (nM) of 100% TGF-β3 activity is given for each entry.
Your answer should be a plain number; it is taken to be in nM.

Observe how each entry below is paired with its result.
Qu. Endpoint output: Conc (nM) of 100% TGF-β3 activity of O=C(Nc1cccnc1)c1n[nH]c2cc(F)c(-c3cncc(CN4CCCCC4)c3)cc12 . Value?
Ans. 900

Qu. Need Conc (nM) of 100% TGF-β3 activity, item O=C(Nc1ccnc(C(F)(F)F)c1)c1n[nH]c2ccc(-c3cccnc3)cc12
Ans. 900

Qu. Which Conc (nM) of 100% TGF-β3 activity is listed for CC1CCN(Cc2cncc(-c3ccc4[nH]nc(C(=O)Nc5cccnc5)c4c3)c2)CC1 ?
Ans. 900

More entries:
Qu. Report Conc (nM) of 100% TGF-β3 activity for O=C(Nc1ccnc(N2CCCCC2)c1)c1n[nH]c2ccc(-c3cccnc3)cc12 please.
Ans. 2700

Qu. # lookup: Conc (nM) of 100% TGF-β3 activity of O=C(Nc1cccnc1)c1n[nH]c2ccc(-c3cncc(CN4CC5CC(C4)O5)c3)cc12
Ans. 900

Values were extracted from patent US10669240B2.
